# Experimental system: T1, human CD73 (full length, on transfected CHOK1 cells) (human, UniProt P21589 27-549)
# T1 sequence (looked up): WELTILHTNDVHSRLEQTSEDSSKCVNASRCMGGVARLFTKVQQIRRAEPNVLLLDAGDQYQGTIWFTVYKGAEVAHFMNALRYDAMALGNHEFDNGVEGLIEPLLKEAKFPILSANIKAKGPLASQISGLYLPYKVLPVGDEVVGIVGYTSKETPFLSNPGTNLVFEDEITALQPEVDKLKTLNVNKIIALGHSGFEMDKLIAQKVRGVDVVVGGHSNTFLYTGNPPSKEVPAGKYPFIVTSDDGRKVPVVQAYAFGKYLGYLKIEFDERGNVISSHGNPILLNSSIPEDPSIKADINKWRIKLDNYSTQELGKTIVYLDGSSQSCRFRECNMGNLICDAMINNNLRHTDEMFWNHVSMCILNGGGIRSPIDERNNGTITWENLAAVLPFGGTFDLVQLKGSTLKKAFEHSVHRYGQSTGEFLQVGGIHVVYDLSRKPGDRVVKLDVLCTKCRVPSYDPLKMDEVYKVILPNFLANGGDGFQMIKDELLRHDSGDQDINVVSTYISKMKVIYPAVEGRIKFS
# Assay method text: cell-based or functional assay
Parameter measured: Enzyme activity blocking assay, MAX % inhibition
The reply should read as a number followed by its unit.

Some binders with known Enzyme activity blocking assay, MAX % inhibition results, for comparison:
>>> test_result("mAb020 (clone 24D6B4), murine anti-CD73 antibody (antibody, V domains shown, Purified from hybridoma supernatant) VH: EVQLQQSGPELVKPGASVKIPCKASGYTFTDYNMDWVKQRHGKSLEWIGDINPNNGGTVYNQKFKGKATLTVDKSSNTAYMELRSLTSEDTAVYYCARISGTGYWYFDVWGTGTTVTVSS VL: DIQMTQSPASLSVSVGETVTITCRASENIYSNLAWYQQKQGKSPQLLVYGATNLADGVPSRFSGSDSGTQYSLKINSLQSEDFGSYYCQHFWGTPWTFGGGTKLEIK")
"63%"
>>> test_result("mAb034 (clone 60G1C8), murine anti-CD73 antibody (antibody, V domains shown, Purified from hybridoma supernatant) VH: DVQLQESGPGLVKPSQSLSLTCSVTGYSITSRYYWNWIRQFPGNKLEWMGYMTYDGTNNYNPSLTNRISITRDTSKNQFFLKLNSVTAEDTATYFCARGGWDPFDYWGQGTTLTVSS VL: DIQMTQSPAALSASVGETVTITCRASDNIYSYLAWYQQKQGKCPQLLVKNAKTLAEGVPSRFSGSGSGTQFSLRINSLQPDDFGTYYCQHYYGTPLTFGAGTKLELK")
"73.7%"
>>> test_result("mAb036 (clone 66H6C12), murine anti-CD73 antibody (antibody, V domains shown, Purified from hybridoma supernatant) VH: QVQLQQSGAEVVKPGASVKISCKASGYVFSSYWINWVKQRPGKGLEWIGKIFPGNGDTDYNGNFKGKATLTADKSSSTAYMQLSSLTSEDSAVYFCAGFADWGQGTLVTVSA VL: DIQMTQSPSSLSASLGERVSLTCRASQDIGERLIWLQQEPDGTFKRLIYATSSLDSGVPKRFSGSSSGSDYSLTISRLESEDFVDYYCLQYASSPYTFGGGTKLEIK")
"72.3%"

Now let's try a different one.
I would be grateful if you could share the reported Enzyme activity blocking assay, MAX % inhibition for mAb042 (clone 77B9A3), murine anti-CD73 antibody (antibody, V domains shown, Purified from hybridoma supernatant) VH: QVQLQQSGAGLVKPGASVKLSCKASGYTFTNYWMHWVKQRPGQGLEWIGMIHPNSGSTNNNEKFKNKATLTVDKSSNTAYMQLSSLTSEDSAVYYCARFFFGGYPHYYALDYWGQGTSVTVSS VL: DIVMTQSQKFMSTTVGDRVSITCKASQNVGTAVAWYQQKPGQSPKLLIYSASDRYTGVPDRLTGSGSGTDFTLTISNVQSEDLADYFCQQYSSFPLFTFGSGTKLVIQ .
47.9%
